Test target: FKBP52 (Homo sapiens, UniProt Q02790)
Construct: Purified FK1-domains of FKBP51WT (4.5 nM) with F4 (3 nM), FKBP52WT (400 nM) with F2 (20 nM); implied by Ni-NTA purification) (N); made in house; host or cells: E. coli BL21(DE3)pLysS
Sequence (Q02790 50-138 limits assumed): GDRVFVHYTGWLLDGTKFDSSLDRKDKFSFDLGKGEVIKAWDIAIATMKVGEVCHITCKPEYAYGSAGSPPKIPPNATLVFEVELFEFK
Protocol details: Fluorescence polarization binding assay, FK1-domain of FKBP52WT with tracer F2 (selectivity FKBP51 vs. FKBP52)
Run parameters: selectivity factor over FKBP52; compounds B01-C25
Measurement kind: Ki(FKBP51)/Ki(FKBP52)

[[record]]
molecule = "COc1cc([C@@H](C(=O)N2CCCC[C@H]2C(=O)NC(C)(C)CC(N)=O)C2CCCCC2)cc(OC)c1OC [Compound B25]"
test_target = "FKBP52 (Homo sapiens, UniProt Q02790)"
measurement_kind = "Ki(FKBP51)/Ki(FKBP52)"
result = "+++ (>500 +++)"

[[record]]
molecule = "CCOC(=O)[C@@H]1CCCCN1C(=O)[C@H](c1cc(OC)c(OC)c(OC)c1)C1CCCCC1 [Compound C02]"
test_target = "FKBP52 (Homo sapiens, UniProt Q02790)"
measurement_kind = "Ki(FKBP51)/Ki(FKBP52)"
result = "++ (>50 ++)"

[[record]]
molecule = "COc1cc([C@@H](C(=O)N2CCCC[C@H]2C(=O)NC2(C(N)=O)CCCCC2)C2CCCCC2)cc(OC)c1OC [Compound B31]"
test_target = "FKBP52 (Homo sapiens, UniProt Q02790)"
measurement_kind = "Ki(FKBP51)/Ki(FKBP52)"
result = "++ (>50 ++)"

[[record]]
molecule = "COc1cc([C@@H](C(=O)N2CCCC[C@H]2C(=O)N[C@H](Cc2c[nH]cn2)C(N)=O)C2CCCCC2)cc(OC)c1OC [Compound B34]"
test_target = "FKBP52 (Homo sapiens, UniProt Q02790)"
measurement_kind = "Ki(FKBP51)/Ki(FKBP52)"
result = "++ (>50 ++)"

[[record]]
molecule = "COc1cc([C@@H](C(=O)N2CCCC[C@H]2C(=O)OC2CCCC2)C2CCCCC2)cc(OC)c1OC [Compound C13]"
test_target = "FKBP52 (Homo sapiens, UniProt Q02790)"
measurement_kind = "Ki(FKBP51)/Ki(FKBP52)"
result = "+++ (>500 +++)"

[[record]]
molecule = "COc1cc([C@@H](C(=O)N2CCCC[C@H]2C(=O)NC2(C(=O)NCC(N)=O)CCCC2)C2CCCCC2)cc(OC)c1OC [Compound B33]"
test_target = "FKBP52 (Homo sapiens, UniProt Q02790)"
measurement_kind = "Ki(FKBP51)/Ki(FKBP52)"
result = "+++ (>500 +++)"

[[record]]
molecule = "COc1cc([C@@H](C(=O)N2CCCC[C@H]2C(=O)N[C@@H](CC(C)C)C(N)=O)C2CCCCC2)cc(OC)c1OC [Compound B30]"
test_target = "FKBP52 (Homo sapiens, UniProt Q02790)"
measurement_kind = "Ki(FKBP51)/Ki(FKBP52)"
result = "++ (>50 ++)"

[[record]]
molecule = "COc1cc([C@@H](C(=O)N2CCCC[C@H]2C(=O)N[C@@H](CCc2ccccc2)C(N)=O)C2CCCCC2)cc(OC)c1OC [Compound B08]"
test_target = "FKBP52 (Homo sapiens, UniProt Q02790)"
measurement_kind = "Ki(FKBP51)/Ki(FKBP52)"
result = "++ (>50 ++)"

[[record]]
molecule = "COc1cc([C@@H](C(=O)N2CCCC[C@H]2C(=O)N[C@@H](C)C(N)=O)C2CCCCC2)cc(OC)c1OC [Compound B01]"
test_target = "FKBP52 (Homo sapiens, UniProt Q02790)"
measurement_kind = "Ki(FKBP51)/Ki(FKBP52)"
result = "++ (>50 ++)"

[[record]]
molecule = "COc1cc([C@@H](C(=O)N2CCCC[C@H]2C(=O)OCCCOCc2ccccc2)C2CCCCC2)cc(OC)c1OC [Compound C21]"
test_target = "FKBP52 (Homo sapiens, UniProt Q02790)"
measurement_kind = "Ki(FKBP51)/Ki(FKBP52)"
result = "++ (>50 ++)"

[[record]]
molecule = "CCCOC(=O)[C@@H]1CCCCN1C(=O)[C@H](c1cc(OC)c(OC)c(OC)c1)C1CCCCC1 [Compound C03]"
test_target = "FKBP52 (Homo sapiens, UniProt Q02790)"
measurement_kind = "Ki(FKBP51)/Ki(FKBP52)"
result = "+++ (>500 +++)"

